This collection of values is drawn from PubChem BioAssay (NCI).

- Tested on: OVCAR-4 ovarian
- method.description: NCI tumour cell line growth inhibition, 48 h
TGI listing for selected compounds.

Use these answered entries as a reference point.
# compound, subject.of.test, result
data = [
    ("C=CCSc1nc2ccccc2c(=O)n1Cc1ccco1", "OVCAR-4 ovarian", "> 100 µM"),
    ("Nc1c(-c2cccc3ccccc23)c2ccc([N+](=O)[O-])cc2c(=O)n1-c1nc2ccccc2s1", "OVCAR-4 ovarian", "> 53.5 µM"),
]

According to the records, this compound `NC(N)=NS(=O)(=O)c1ccc(NC(=O)c2cccc3c(Nc4ccc(S(N)(=O)=O)cc4)c4ccccc4nc23)cc1` displays TGI of > 100 µM

According to the records, this compound `C[C@H](Cn1ncnn1)Nc1ncc2cc(Oc3ccc(F)cc3F)c(=O)n(C)c2n1` displays TGI of > 25 µM

According to the records, this compound `Cc1c(C(=O)CSc2nc3ccccc3c(=O)n2-c2ccccc2)c(=O)n(-c2ccccc2)n1C` displays TGI of > 100 µM

---

- Test system: SK-OV-3 ovarian
- method.description: NCI tumour cell line growth inhibition, 48 h
parameter.measured: TGI (µM)
Lab book: enter the figure in µM, no units written.

Use these answered entries as a reference point.
# molecule, readout.unit, TGI
records = [
    ("C[C@H]1[C@H](C)CC[C@]2(C(=O)NCCNCCN)CC[C@]3(C)C(=CC[C@@H]4[C@@]5(C)CCC(=O)C(C)(C)[C@@H]5CC[C@]43C)[C@H]12", "µM", 33.2),
    ("CC(=O)N/N=C1\\NC(=O)C[C@H]2[C@@H]3CC=C4C[C@@H](OC(C)=O)CC[C@]4(C)[C@H]3CC[C@]12C", "µM", 53.7),
    ("O=C(NCCN1CCOCC1)c1ccc2cc(C(=O)N3CC(CCl)c4ccc([N+](=O)[O-])cc43)[nH]c2c1 (stereo not given)", "µM", 40.5),
    ("C=C1CC2(OC1=O)C(=O)N(CCCN1C(=O)C3(CC(=C)C(=O)O3)c3ccccc31)c1ccccc12 (stereo not given)", "µM", 23.7),
    ("O=P(c1ccccc1)(c1ccccc1)N1O[C@@H](c2ccccc2)C=C[C@H]1c1ccccc1", "µM", 33.4),
    ("CN(C)Cc1c[nH]c2c(NCCN)c3c(c(NCCN)c12)C(=O)c1ccccc1C3=O", "µM", 24.1),
    ("NC(=O)C1(N2CCCCC2)CCN(CCCC(=O)c2ccc(F)cc2)CC1", "µM", 35.3),
    ("COc1ccc(C(OCC2OC(n3cc(C)c(=O)[nH]c3=O)CC2n2cc(Cn3cc(F)c(=O)[nH]c3=O)nn2)(c2ccccc2)c2ccccc2)cc1 (stereo not given)", "µM", 22.9),
]

API: the following record is the query input.
According to the records, this molecule `O=C1C(SCCO)=C(SCCO)C(=O)c2ccccc21` displays TGI of 3.08

---

TGI listing for selected molecules.
- Test system: CAKI-1 renal
- method.description: NCI tumour cell line growth inhibition, 48 h
Lab book: enter the figure in µM, no units written.

Use these answered entries as a reference point.
# molecule, subject.of.test, parameter.measured, result
data = [
    ("C[n+]1c2ccccc2cc2c(CNC(CCCN=C(N)N)C(=O)O)cccc21 (stereo not given)", "CAKI-1 renal", "TGI", 2.07),
    ("O=P(c1ccccc1)(c1ccccc1)N1O[C@@H](c2ccccc2)C=C[C@H]1c1ccccc1", "CAKI-1 renal", "TGI", 22.4),
]

According to the records, this molecule CCCCC1c2c([nH]c3ccccc23)C2C(=O)N(c3ccc(OC)cc3)C(=O)C2C1CCC (stereo not given) displays TGI of 6.25

According to the records, this molecule CC1CCCc2c1nn(C(=O)/C=C(\N)c1ccccc1)c2N (stereo not given) displays TGI of 15.4

According to the records, this molecule `CC1(C)[C@@H]2CC[C@@]1(C)[C@@H]1O[C@@H](O[C@@H](CN)c3cc(Cl)c(OCc4ccccc4)c(OCc4ccccc4)c3)C[C@H]21` displays TGI of 0.301

According to the records, this molecule `CN(C)Cc1c[nH]c2c(NCCN)c3c(c(NCCN)c12)C(=O)c1ccccc1C3=O` displays TGI of 41.7

According to the records, this molecule COc1ccc(C(OCC2OC(n3cc(C)c(=O)[nH]c3=O)CC2n2cc(Cn3cc(F)c(=O)[nH]c3=O)nn2)(c2ccccc2)c2ccccc2)cc1 (stereo not given) displays TGI of 25

---

- System: UO-31 renal
- method.description: NCI tumour cell line growth inhibition, 48 h
parameter.measured: TGI

Use these answered entries as a reference point.
# molecule, TGI
data = [
    ("CC(=O)[CH-]C(C)=O.[CH2-]C.[CH2-]C.[Tl+3]", "> 100 µM"),
    ("CNC(=O)c1cc2c(Oc3ccc(NC(=O)C4(C(=O)Nc5ccc(F)cc5)CC4)cc3)ccnc2cc1OC", "6.25 µM"),
    ("Cc1ccccc1Nc1nc2c(s1)C(=O)c1ccccc1C2=O", "14.4 µM"),
    ("CC1CCCc2c1nn(C(=O)/C=C(\\N)c1ccccc1)c2N (stereo unspecified)", "> 100 µM"),
    ("C=CCNC(=S)/N=C/c1c(O)c2ccccc2oc1=O", "> 100 µM"),
]

API: the following record is the query input.
According to the records, this molecule `O=C1C=CC(=O)N1Nc1ccc([N+](=O)[O-])cc1[N+](=O)[O-]` displays TGI of > 100 µM

---

- Tested on: BT-549 breast
- method.description: NCI tumour cell line growth inhibition, 48 h
Label Criterion met for high-side TGI (at or above 30 µM) and Criterion not met for low-side TGI (below it).

Example entries and their recorded answers appear below.
# query.smiles, group
data = [
    ("CCN(CC)CCOc1ccc(N2C(=O)c3cc(OC)c(OC)cc3C2=O)cc1", "Criterion met"),
    ("C=CC[C@]12C[C@@H](C(=O)OC)N(C(=O)OC)[C@H]1N(S(=O)(=O)c1ccccc1)c1ccccc12", "Criterion met"),
    ("N#CC(C#N)=CNC(=S)c1ccncc1", "Criterion met"),
]

Entry `Cc1csc(-c2cn(C)c3c2C(=O)C(N)=CC3=O)n1` : is its TGI no less than 30 µM?
Criterion met

Entry `CCOC(=N)n1c(=O)n(C2=NCCN2)c2ccccc21` : is its TGI no less than 30 µM?
Criterion met

Entry `CN(C)CCCN1C(=S)N(CCCN(C)C)c2c3cc(O)ccc3nc3c([N+](=O)[O-])ccc1c23` : is its TGI no less than 30 µM?
Criterion not met

Entry `N#C/C(=C\c1cc(Br)c(O)c(Br)c1)c1cccnc1` : is its TGI no less than 30 µM?
Criterion met

Entry `O=C(CNc1ccccc1Cl)Nn1c(-c2ccccc2)nc2ccccc2c1=O` : is its TGI no less than 30 µM?
Criterion not met

Entry `COc1ccc2nc3cc(Cl)ccc3c(NCCCNCCCNc3c4ccc(Cl)cc4nc4ccc(OC)cc34)c2c1` : is its TGI no less than 30 µM?
Criterion not met

Entry `COc1ccc2cc(-c3ccc(-c4ccc(C(=N)N)s4)s3)ccc2c1` : is its TGI no less than 30 µM?
Criterion met

---

- Tested on: OVCAR-8 ovarian
- method.description: NCI tumour cell line growth inhibition, 48 h
parameter.measured: GI50

Use these answered entries as a reference point.
# molecule, parameter.measured, result
records = [
    ("CNC(=O)c1cc2c(Oc3ccc(NC(=O)C4(C(=O)Nc5ccc(F)cc5)CC4)cc3)ccnc2cc1OC", "GI50", "3.77 µM"),
    ("O=C(O)CCC(NC(=S)S)C(=O)O.[Na+].[Zn+2] (stereo not given)", "GI50", "> 50 µM"),
    ("COc1ccc(CC(C)C(C)Cc2ccc(OC)c(OC)c2)cc1OC (stereo not given)", "GI50", "> 1400 µM"),
    ("CCOC1Oc2ccccc2-c2oc(=O)c(Sc3ccc(C)cc3)cc21 (stereo not given)", "GI50", "51 µM"),
    ("NC(=O)c1cccc(Nc2nccc(Nc3cccc(F)c3)n2)c1", "GI50", "9.49 µM"),
]

According to the records, this molecule `Cn1c2ccccc2c2c(=O)c3ccccc3[nH]c21` displays GI50 of > 100 µM

According to the records, this molecule `CC(C)c1ccc(C(=O)Nc2sc3c(CN(C)C)c(O)ccc3c2C(N)=O)cc1` displays GI50 of 3.07 µM

According to the records, this molecule `O=S(=O)(CCOCc1ccc(-c2ccc3ncnc(Nc4ccc(OCc5cccc(F)c5)c(Cl)c4)c3c2)o1)c1ccccc1` displays GI50 of > 25 µM

According to the records, this molecule `Cn1cc(-c2csc(-c3cn(C)c4ccccc34)n2)c2cnccc21` displays GI50 of 2.68 µM

According to the records, this molecule `Cc1ncc(C(=O)Nc2ccc(CN3CCN(C)CC3)c(C(F)(F)F)c2)cc1C#Cc1cnc(NC2CC2)c2ncccc12` displays GI50 of 0.708 µM
